Listed here: items and their measured PBM binding z-score.
test system: PPARa:RXRa (NR concentration 270 nM, RXRa partner concentration 90 nM); assay: PBM binding z-score (relative to random genomic background probes); higher = stronger binding; sequences stand for … in GC…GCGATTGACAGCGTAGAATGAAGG
Enter the number alone.

Before answering, review these 3 worked examples.
[
  {
    "sequenceRecord": "CCTACTGGGCGAAGGTCATTGATCAGTCAAAGCA",
    "PBM binding z-score": 3.86
  },
  {
    "sequenceRecord": "TCGAGTCGGTTACGGGGGCATTCAGGGATGAAGA",
    "PBM binding z-score": 2.75
  },
  {
    "sequenceRecord": "ATATGTAGGTTATCGGGTCATTCATTTTGCGCAT",
    "PBM binding z-score": 5.09
  }
]

Lookup: Read off the recorded PBM binding z-score for `CAAAATAGGTCAAGAGGTCAAAGTCCGCTTCCCG`
Found: 6.57

Lookup: Read off the recorded PBM binding z-score for `CCGAGTAGGTTACGACGGGGCATTCAGTGCGAAT`
Found: 1.36

Lookup: Read off the recorded PBM binding z-score for `CGTCCAAGGTCAAGGTGAGTGAAAGAGACTCGAA`
Found: 5.71

###

Listed here: items and their measured PBM binding z-score.
system: THRa:RXRa (NR concentration 90 nM, RXRa partner concentration 90 nM); assay: PBM binding z-score (relative to random genomic background probes); higher = stronger binding; sequences stand for … in GC…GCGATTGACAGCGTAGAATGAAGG
Enter the number alone.

Before answering, review these 4 worked examples.
[
  {
    "sequenceRecord": "CGTCAAAGCTCAACTAAGGTAACGTAAAGCACGC",
    "PBM binding z-score": 3.64
  },
  {
    "sequenceRecord": "CAAACTAGGTCAAAGGTCAACGTCGAGCCAACCA",
    "PBM binding z-score": 4.98
  },
  {
    "sequenceRecord": "CGAACTAGGTCAGAACAGTACAGTGAAGGATGAT",
    "PBM binding z-score": 1.83
  },
  {
    "sequenceRecord": "CTAACTAGGTCACCGGAAGGTCAAAGTCCGCATG",
    "PBM binding z-score": 4.48
  }
]

Lookup: Read off the recorded PBM binding z-score for `CCGAGTAGGTCACGAGGGGGCATTCAGTGCGAAT`
Found: 4.54

Lookup: Read off the recorded PBM binding z-score for `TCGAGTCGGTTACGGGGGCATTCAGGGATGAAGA`
Found: 3.45

Lookup: Read off the recorded PBM binding z-score for `CCGAGTAGGTTACGAGTGGGCATTCAGTGCGAAT`
Found: 0.606

Lookup: Read off the recorded PBM binding z-score for `CGTCCAAGGTCATAGGAGTTCAGTGAAGACAGAT`
Found: 4.71

###

test system: PPARg:RXRa IVT, anti-PPARg (NR concentration 270 nM, RXRa partner concentration 90 nM); assay: PBM binding z-score (relative to random genomic background probes); higher = stronger binding; sequences stand for … in GC…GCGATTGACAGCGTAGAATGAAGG
measuredProperty: PBM binding z-score
Enter the number alone.

Before answering, review these 3 worked examples.
[
  {
    "sequenceRecord": "CCTAGCAGGCCAGGGTCACCCAAGCATTTCGCTT",
    "PBM binding z-score": 1.79
  },
  {
    "sequenceRecord": "ATATGTAGGTCAGGGTCATTCAGAAAGTAGGGAA",
    "PBM binding z-score": 8.62
  },
  {
    "sequenceRecord": "CAAACTAGGTCACAGAGGTTAAAGTCCGTGCGTA",
    "PBM binding z-score": 9.05
  }
]

Lookup: Read off the recorded PBM binding z-score for `TAGCCTCGGTCATTCAGGGGCCAGTATAGAAAGC`
Found: 0.476

###

test system: LXRa:RXRa (NR concentration 270 nM, RXRa partner concentration 90 nM); test: PBM binding z-score (relative to random genomic background probes); higher = stronger binding; sequences stand for … in GC…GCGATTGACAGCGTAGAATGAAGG
Listed here: items and their measured PBM binding z-score.
Enter the number alone.

[
  {
    "sequenceRecord": "CGAACTAGGTCAAACGACAGTGAAAGGCGACGTA",
    "PBM binding z-score": 2.87
  },
  {
    "sequenceRecord": "TCGAGTAGCTTACGGGGGCATTCAGGGATGAAGA",
    "PBM binding z-score": 1.5
  },
  {
    "sequenceRecord": "CCGAGTAGGTTACGAGGGTGCATTCAGTGCGAAT",
    "PBM binding z-score": 5.55
  },
  {
    "sequenceRecord": "CGAACTAGGCCAAAGGACAGTGAAAGGCGACGTA",
    "PBM binding z-score": -0.893
  },
  {
    "sequenceRecord": "CGAACTAGCTCAAGGACAGTGAATCTCCGCACGC",
    "PBM binding z-score": -0.503
  }
]

Lookup: Read off the recorded PBM binding z-score for `CGAACTATGTCAAGGACAGTGAATCTCCGCACGC`
Found: -0.232

Lookup: Read off the recorded PBM binding z-score for `TTACCAAGGTGAAGGTCGTGGATCCCTCTGTAGA`
Found: 1.33

Lookup: Read off the recorded PBM binding z-score for `ATATGCAGGTTATCGGGTCATTCAGTTTGCGCAT`
Found: 3.44

Lookup: Read off the recorded PBM binding z-score for `ATATGTAGGTTAGGGTCATTTAGAAAGTAGGGAA`
Found: 3.93

###

Listed here: items and their measured PBM binding z-score.
test system: RARa homodimer (NR concentration 270 nM); assay: PBM binding z-score (relative to random genomic background probes); higher = stronger binding; sequences stand for … in GC…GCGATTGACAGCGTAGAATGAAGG
Enter the number alone.

[
  {
    "sequenceRecord": "CTTACTGGGCCAAAGGTCATTGATTCCAATGCTC",
    "PBM binding z-score": 1.85
  }
]

Lookup: Read off the recorded PBM binding z-score for `CGTCAAAGTTCAACTAAGTTAACGTAAAGCACGC`
Found: 2.57

Lookup: Read off the recorded PBM binding z-score for `CCAACTAGGTCACCAGGACAGTGAAGAGGTTGGA`
Found: 1.44

Lookup: Read off the recorded PBM binding z-score for `CTATGTACGTTAAGGGGGTCATTCAGTTTGAAAG`
Found: 1.37

###

test system: PPARg:RXRa DBDmut IVT, anti-RXR (DBD mutation: RXRa K156A/R161A, NR concentration 270 nM, RXRa partner concentration 90 nM); assay: PBM binding z-score (relative to random genomic background probes); higher = stronger binding; sequences stand for … in GC…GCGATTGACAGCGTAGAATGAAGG
Listed here: items and their measured PBM binding z-score.
Enter the number alone.

Before answering, review these 5 worked examples.
[
  {
    "sequenceRecord": "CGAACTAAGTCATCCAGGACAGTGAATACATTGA",
    "measuredProperty": "PBM binding z-score",
    "observedMeasurement": 1.12
  },
  {
    "sequenceRecord": "ATCCAAAGGTCGAGGTGAGTATAGAGAAAGGGAA",
    "measuredProperty": "PBM binding z-score",
    "observedMeasurement": 0.646
  },
  {
    "sequenceRecord": "CCGAGTAGGTTACGAGGGGGCATTTAGTGCGAAT",
    "measuredProperty": "PBM binding z-score",
    "observedMeasurement": 4.67
  },
  {
    "sequenceRecord": "CTTTACGGGTCAAGGTTATAGCACGGGTGGTACG",
    "measuredProperty": "PBM binding z-score",
    "observedMeasurement": 3.74
  },
  {
    "sequenceRecord": "CGAACTAGGTCCAAGGACAGTGAAAGGCGACGTA",
    "measuredProperty": "PBM binding z-score",
    "observedMeasurement": 0.968
  }
]

Lookup: Read off the recorded PBM binding z-score for `TTACCAAGGTGAACTGAGGTCGTTGATCCAACTC`
Found: 2.89

Lookup: Read off the recorded PBM binding z-score for `CGAACTAGGTCAATGGACAGTGAAAGGCGACGTA`
Found: 7.65

Lookup: Read off the recorded PBM binding z-score for `AGTCAAAGTTCATCTAGGTATCGTAAGATATGCT`
Found: 0.0537

Lookup: Read off the recorded PBM binding z-score for `CGAACTAGGTCACAAGGACAGTGAAGAGGTTGGA`
Found: 8.39

Lookup: Read off the recorded PBM binding z-score for `CAAACTAGGTCACGAAAGGTCAAAATCGAATGAC`
Found: 8.56

Lookup: Read off the recorded PBM binding z-score for `GATTCAGGGTCAGCTAGAGGCCAGAGTATGGAAA`
Found: 1.78

###

system: RXRa DBDmut IVT, anti-RXR (DBD mutation: RXRa K156A/R161A, NR concentration 90 nM); assay: PBM binding z-score (relative to random genomic background probes); higher = stronger binding; sequences stand for … in GC…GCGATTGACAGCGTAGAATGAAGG
Assign Fulfilled to entries whose PBM binding z-score meets or exceeds 2; assign Not fulfilled to the rest.

Consider the worked cases shown below.
[
  {
    "sequenceRecord": "CCGAGTAGGTTACGAGAGGGCATTCAGTGCGAAT",
    "assignedLabel": "Not fulfilled"
  },
  {
    "sequenceRecord": "AGTCAAAATTCACTAGGTAACGTAAGATTCAGCT",
    "assignedLabel": "Not fulfilled"
  },
  {
    "sequenceRecord": "CTATGTAGGTTAAGGGGGTCTTTCAGTTTGAAAG",
    "assignedLabel": "Not fulfilled"
  },
  {
    "sequenceRecord": "TCGAGTAGGTTACGGGGGAATTCAGGGATGAAGA",
    "assignedLabel": "Not fulfilled"
  },
  {
    "sequenceRecord": "CCTTACGGGTCAGTGACAGGTTATAGCATTTGGA",
    "assignedLabel": "Not fulfilled"
  }
]

Lookup: Assess whether reported PBM binding z-score for `AGTCAAAGTTCACGAGGTAACGTAAGATTCAGCT` sits at 2 or higher.
Found: Fulfilled

Lookup: Assess whether reported PBM binding z-score for `CGTCAAAGTTCAAGGTTACGTAACAGAAAGCAGC` sits at 2 or higher.
Found: Fulfilled

Lookup: Assess whether reported PBM binding z-score for `CCCACTGGGCCATTCAGAGGTCATTGATCATATG` sits at 2 or higher.
Found: Not fulfilled

Lookup: Assess whether reported PBM binding z-score for `CCTACTGGGCCATTCAGAGGTCATTGATCATATG` sits at 2 or higher.
Found: Not fulfilled

Lookup: Assess whether reported PBM binding z-score for `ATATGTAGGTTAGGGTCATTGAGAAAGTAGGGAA` sits at 2 or higher.
Found: Fulfilled

Lookup: Assess whether reported PBM binding z-score for `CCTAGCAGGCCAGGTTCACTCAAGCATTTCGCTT` sits at 2 or higher.
Found: Fulfilled

Lookup: Assess whether reported PBM binding z-score for `CGAACTAGGTCAAAGGACAATGAAAGGCGACGTA` sits at 2 or higher.
Found: Not fulfilled

Lookup: Assess whether reported PBM binding z-score for `CCTACAGGGCCAAGGTCATTGATCAGTCAAAGCA` sits at 2 or higher.
Found: Not fulfilled

Lookup: Assess whether reported PBM binding z-score for `ATCTCTAGGTTAAAGTTCAGTGAATCCCGAGGAT` sits at 2 or higher.
Found: Not fulfilled

Lookup: Assess whether reported PBM binding z-score for `AGTCAAAGTTCACGACGAGGTAACGTAAAGCACG` sits at 2 or higher.
Found: Fulfilled

Lookup: Assess whether reported PBM binding z-score for `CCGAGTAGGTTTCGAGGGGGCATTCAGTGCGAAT` sits at 2 or higher.
Found: Not fulfilled

Lookup: Assess whether reported PBM binding z-score for `CCTTACGGGTCAGGAGGTTATAGCACGACGAGCG` sits at 2 or higher.
Found: Not fulfilled

Lookup: Assess whether reported PBM binding z-score for `CCGACGGGGGCAGAAAGGTTACCATACCATCCGG` sits at 2 or higher.
Found: Not fulfilled

Lookup: Assess whether reported PBM binding z-score for `CCGAGTAGATTACGAGGGGGCATTCAGTGCGAAT` sits at 2 or higher.
Found: Not fulfilled

Lookup: Assess whether reported PBM binding z-score for `CGTCTAAGTTCAAGGTAACGTAACAGAAAGCAGC` sits at 2 or higher.
Found: Fulfilled

Lookup: Assess whether reported PBM binding z-score for `TGACTGAGGTTAAAGATCAGGGAACGTGGCGTCG` sits at 2 or higher.
Found: Not fulfilled

Lookup: Assess whether reported PBM binding z-score for `TAGCCTAGGTCATTCAGGGGCCAGAATAGAAAGC` sits at 2 or higher.
Found: Fulfilled
